# measured.on: Apoptotic protease-activating factor 1 (Homo sapiens)
# Sequence (O14727 whole entry): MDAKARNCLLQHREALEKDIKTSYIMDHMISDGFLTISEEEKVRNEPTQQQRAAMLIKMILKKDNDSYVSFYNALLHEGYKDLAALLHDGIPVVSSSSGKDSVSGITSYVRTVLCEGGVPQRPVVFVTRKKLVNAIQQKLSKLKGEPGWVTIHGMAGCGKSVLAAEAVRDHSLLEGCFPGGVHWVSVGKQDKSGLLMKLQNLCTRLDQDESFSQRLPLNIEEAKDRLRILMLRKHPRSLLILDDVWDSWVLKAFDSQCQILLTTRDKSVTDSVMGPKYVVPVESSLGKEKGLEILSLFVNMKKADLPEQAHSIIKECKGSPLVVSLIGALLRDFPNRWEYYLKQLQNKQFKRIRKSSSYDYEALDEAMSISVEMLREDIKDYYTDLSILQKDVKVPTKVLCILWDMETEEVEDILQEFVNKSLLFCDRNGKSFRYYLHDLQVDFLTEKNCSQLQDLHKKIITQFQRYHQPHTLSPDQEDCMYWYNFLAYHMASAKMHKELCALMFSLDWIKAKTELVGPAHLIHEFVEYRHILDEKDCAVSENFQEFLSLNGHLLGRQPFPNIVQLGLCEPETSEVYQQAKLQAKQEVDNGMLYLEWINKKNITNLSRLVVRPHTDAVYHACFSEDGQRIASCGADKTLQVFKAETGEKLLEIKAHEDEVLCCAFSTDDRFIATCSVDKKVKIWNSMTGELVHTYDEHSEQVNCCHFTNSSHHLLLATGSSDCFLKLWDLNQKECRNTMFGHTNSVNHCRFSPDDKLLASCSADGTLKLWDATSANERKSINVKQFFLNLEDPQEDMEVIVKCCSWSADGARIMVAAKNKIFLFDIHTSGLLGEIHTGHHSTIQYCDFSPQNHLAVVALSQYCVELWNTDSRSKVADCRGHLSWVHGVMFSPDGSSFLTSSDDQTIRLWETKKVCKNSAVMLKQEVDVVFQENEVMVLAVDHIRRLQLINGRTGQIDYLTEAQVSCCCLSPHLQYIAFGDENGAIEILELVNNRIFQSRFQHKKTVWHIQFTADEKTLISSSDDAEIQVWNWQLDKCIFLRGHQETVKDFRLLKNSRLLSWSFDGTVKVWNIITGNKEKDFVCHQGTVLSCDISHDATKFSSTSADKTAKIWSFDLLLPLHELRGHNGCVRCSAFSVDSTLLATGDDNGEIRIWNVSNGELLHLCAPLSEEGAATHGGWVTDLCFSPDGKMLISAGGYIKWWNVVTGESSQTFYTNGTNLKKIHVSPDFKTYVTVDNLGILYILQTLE
# Format: functional
Active and inactive are the calls of the source.
// values below are reported IC50

Use these answered entries as a reference point.
CS(=O)(=O)c1nc(-c2ccc(Br)cc2)cc(-c2ccccc2)c1C#N
2.07 µM (active)
Cc1ccccc1NC1=C/C(=N\S(=O)(=O)c2ccc(C(=O)O)cc2)c2ccccc2C1=O
1.59 µM (active)

Which measured IC50 value corresponds to CCCCn1c(NC(=O)c2ccco2)c(C(=O)OCC)c2nc3ccccc3nc21 ?
13 µM (active)

Which measured IC50 value corresponds to Cc1ccc(NC2=C/C(=N/S(=O)(=O)c3cccs3)c3ccccc3C2=O)cc1 ?
0.453 µM (active)

----------
// values below are reported EC50
# measured.on: Short transient receptor potential channel 4 (Mus musculus)
# Sequence (Q9QUQ5 whole entry): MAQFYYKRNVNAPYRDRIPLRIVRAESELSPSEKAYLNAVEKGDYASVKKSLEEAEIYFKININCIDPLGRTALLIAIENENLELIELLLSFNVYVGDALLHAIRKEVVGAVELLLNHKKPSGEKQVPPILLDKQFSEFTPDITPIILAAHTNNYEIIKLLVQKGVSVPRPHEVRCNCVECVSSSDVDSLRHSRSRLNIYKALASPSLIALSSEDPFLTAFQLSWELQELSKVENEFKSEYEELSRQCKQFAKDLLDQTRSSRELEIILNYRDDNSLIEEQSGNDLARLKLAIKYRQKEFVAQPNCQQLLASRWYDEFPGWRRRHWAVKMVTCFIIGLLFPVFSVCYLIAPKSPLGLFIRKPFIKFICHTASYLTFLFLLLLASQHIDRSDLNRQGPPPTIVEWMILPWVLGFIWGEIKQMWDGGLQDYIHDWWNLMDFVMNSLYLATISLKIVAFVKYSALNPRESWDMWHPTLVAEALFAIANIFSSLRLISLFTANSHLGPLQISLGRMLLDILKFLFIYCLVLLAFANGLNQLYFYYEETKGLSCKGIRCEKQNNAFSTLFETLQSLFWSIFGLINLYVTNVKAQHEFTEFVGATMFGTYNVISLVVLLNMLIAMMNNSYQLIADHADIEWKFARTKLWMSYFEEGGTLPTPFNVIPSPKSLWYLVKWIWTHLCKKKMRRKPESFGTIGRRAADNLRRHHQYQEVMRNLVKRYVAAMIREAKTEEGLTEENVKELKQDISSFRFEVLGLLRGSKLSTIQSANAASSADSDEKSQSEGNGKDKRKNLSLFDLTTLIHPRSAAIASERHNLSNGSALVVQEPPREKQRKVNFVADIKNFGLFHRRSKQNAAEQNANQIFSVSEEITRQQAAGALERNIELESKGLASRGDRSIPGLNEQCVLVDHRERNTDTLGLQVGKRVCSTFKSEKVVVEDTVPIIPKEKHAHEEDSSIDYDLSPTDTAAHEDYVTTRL
# experiment: calcium entry via TRPC4 opening agents – cell-based, HEK293 TRPC4/mu-opioid, Fluo-4 calcium, dose response (AID 434937)
# Assay type: functional
Activity calls are given as the source filed them.

COC(=O)C1=NN(C(=O)c2cccc(Br)c2)C(O)(c2ccc(Cl)cc2)C1 (stereo not given)
5.31 µM (active)

Which measured EC50 value corresponds to O=C(N/N=C/c1cccnc1)c1ccccc1OCc1ccc(Cl)cc1 ?
3.35 µM (active)

Which measured EC50 value corresponds to COc1ccc(C)c(NC(=O)NCCc2c[nH]cn2)c1 ?
1.88 µM (active)

Which measured EC50 value corresponds to CCOC(=O)c1c(NC(=O)COC(=O)Cc2c[nH]c3ccccc23)sc(C(=O)N(C)C)c1C ?
5.96 µM (active)

Which measured EC50 value corresponds to CCC(=O)NC(C)C(c1cccs1)N1CCN(c2ccccc2)CC1 (stereo not given) ?
0.421 µM (active)

----------
# measured.on: Cytochrome P450 1A2 (Homo sapiens)
# Sequence (P05177 whole entry): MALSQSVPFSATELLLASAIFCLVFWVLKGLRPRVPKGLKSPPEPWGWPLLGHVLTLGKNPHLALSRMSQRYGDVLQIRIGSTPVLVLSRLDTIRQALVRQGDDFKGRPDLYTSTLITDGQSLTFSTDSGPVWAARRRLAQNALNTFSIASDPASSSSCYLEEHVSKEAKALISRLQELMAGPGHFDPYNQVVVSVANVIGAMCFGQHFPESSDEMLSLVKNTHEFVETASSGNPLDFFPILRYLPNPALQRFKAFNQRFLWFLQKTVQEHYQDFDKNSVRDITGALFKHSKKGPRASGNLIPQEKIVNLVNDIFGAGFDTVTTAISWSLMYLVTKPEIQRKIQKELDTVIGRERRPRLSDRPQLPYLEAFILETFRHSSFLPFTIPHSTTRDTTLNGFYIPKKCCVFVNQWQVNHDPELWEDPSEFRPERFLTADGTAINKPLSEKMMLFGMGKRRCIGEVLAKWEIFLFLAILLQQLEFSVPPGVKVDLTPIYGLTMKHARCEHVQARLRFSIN
// values below are reported AC50

Use these answered entries as a reference point.
CCOC(=O)c1cnn(-c2ccc(C(C)C)cc2)c1NC(=O)C1CCC1
14.1 µM (inconclusive)
C/C(=N\OC(=O)c1ccccc1F)c1nccs1
31.6 µM (inconclusive)
Cc1ccc2c(c1)nnn2C1CCN(CC(=O)N2c3ccccc3CC2C)CC1 (stereo not given)
6.31 µM (inconclusive)
Cc1cc(Cn2cnc3c2C[C@@H](C(=O)O)N(C(=O)C(c2ccccc2)c2ccccc2)C3)ccc1N(C)C
25.1 µM (inconclusive)

Find AC50 (Cytochrome P450 1A2 (Homo sapiens)) for the entry CC1CC(C)CN(C(=O)CNS(=O)(=O)c2ccc(Br)s2)C1 (stereo not given)
15.8 µM (inconclusive)

----------
# measured.on: UniProt:Q9XUB2
# Sequence (Q9XUB2 whole entry): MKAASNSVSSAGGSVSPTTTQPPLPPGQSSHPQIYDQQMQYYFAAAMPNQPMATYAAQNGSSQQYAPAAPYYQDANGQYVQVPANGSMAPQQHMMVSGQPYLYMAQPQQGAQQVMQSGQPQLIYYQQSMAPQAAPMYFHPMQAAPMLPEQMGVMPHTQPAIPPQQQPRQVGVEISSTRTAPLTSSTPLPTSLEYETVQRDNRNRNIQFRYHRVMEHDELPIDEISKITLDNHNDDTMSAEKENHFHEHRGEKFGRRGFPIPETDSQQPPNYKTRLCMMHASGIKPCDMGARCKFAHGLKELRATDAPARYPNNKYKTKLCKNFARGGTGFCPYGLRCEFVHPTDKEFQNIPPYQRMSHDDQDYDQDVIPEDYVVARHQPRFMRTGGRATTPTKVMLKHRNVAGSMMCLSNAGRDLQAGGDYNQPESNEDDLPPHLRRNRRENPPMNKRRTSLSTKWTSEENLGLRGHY
# experiment: potency of MEX-5 RNA-binding blockers – biochemical, C. elegans, fluorescence polarization, dose response (AID 1960)
The source made the active and inactive calls.
// values below are reported EC50

NC(=O)C1(N2CCCCC2)CCN(Cc2nc(-c3cccs3)no2)CC1
> 300 µM (not active)
Clc1ccc(C2=CC(c3ccco3)n3ncnc3N2)cc1 (stereo unspecified)
3.36 µM (active)
O=C(O)c1ccccc1-c1ccc(C=C2C(=O)N(c3ccccc3)C(=S)N(c3ccccc3)C2=O)o1
> 300 µM (not active)
CN1C(=O)c2ccccc2NC(=O)[C@]12O[C@@H]2c1cccc(O)c1
35.1 µM (active)
CC1=C(C(=O)OCc2ccccc2)C(c2ccccc2[N+](=O)[O-])NC(=O)N1C (stereo unspecified)
10.9 µM (active)

Next:
Which measured EC50 value corresponds to N=C(N)NS(=O)(=O)c1ccc(NC(=S)NC(=O)/C=C/c2cccs2)cc1 ?
> 300 µM (not active)

----------
# measured.on: Carboxy-terminal domain RNA polymerase II polypeptide A small phosphatase 1 (Homo sapiens, UniProt Q9GZU7)
# Sequence (Q9GZU7 whole entry, the tested form may be a part): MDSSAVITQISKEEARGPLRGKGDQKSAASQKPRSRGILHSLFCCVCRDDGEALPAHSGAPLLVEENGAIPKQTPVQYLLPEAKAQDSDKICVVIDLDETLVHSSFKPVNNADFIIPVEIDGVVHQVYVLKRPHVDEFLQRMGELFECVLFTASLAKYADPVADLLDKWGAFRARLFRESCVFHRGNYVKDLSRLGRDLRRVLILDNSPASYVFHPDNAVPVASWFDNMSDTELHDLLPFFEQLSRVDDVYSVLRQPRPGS
# experiment: CTDSP1 inhibitors, concentration-response, biochemical, absorbance readout, ultra-high-throughput screen actives (AID 540297)
# Type: functional
Activity calls are given as the source filed them.
// values below are reported IC50

Use these answered entries as a reference point.
O=C(Nc1ccc(S(=O)(=O)Nc2nccs2)cc1)c1nn(-c2ccc(F)cc2)ccc1=O
4.55 µM (active)
O=C1NN(c2ccccc2)C(=O)/C1=C/c1ccc(-c2ccc(Cl)c(C(=O)O)c2)o1
4.07 µM (active)
CN(CCC#N)C(=O)COC(=O)c1c2c(nc3ccccc13)/C(=C\c1ccco1)CC2
3.2 µM (active)
O=C(CSc1nc2ccccc2[nH]1)NC1CCCC1
6.85 µM (active)
O=C(Nc1ccccc1F)c1cc(-c2ccco2)nc2ccccc12
8.25 µM (active)
O=C(CSc1ncccc1-c1nc2ccccc2[nH]1)NCc1ccco1
10.3 µM (active)
O=C(CCCCCNC(=O)c1ccccc1)N/N=C/c1ccco1
29.2 µM (active)
CCSc1nnc(NC(=O)CSc2sc3c(O)cc(=O)[nH]c3c2C#N)s1
3.21 µM (active)

Next:
Which measured IC50 value corresponds to CC1C=CC=CC=CC=CC=CC=CC=CC(OC2OC(C)C(O)C(N)C2O)CC2OC(O)(CC(O)CC(O)C(O)CCC(O)CC(O)CC(=O)OC(C)C(C)C1O)CC(O)C2C(=O)O (centres undefined) ?
1.17 µM (active)

----------
# measured.on: Replicative DNA helicase DnaB (Mycobacterium tuberculosis, UniProt P9WMR3)
# Sequence (P9WMR3 1-399, added parts left off): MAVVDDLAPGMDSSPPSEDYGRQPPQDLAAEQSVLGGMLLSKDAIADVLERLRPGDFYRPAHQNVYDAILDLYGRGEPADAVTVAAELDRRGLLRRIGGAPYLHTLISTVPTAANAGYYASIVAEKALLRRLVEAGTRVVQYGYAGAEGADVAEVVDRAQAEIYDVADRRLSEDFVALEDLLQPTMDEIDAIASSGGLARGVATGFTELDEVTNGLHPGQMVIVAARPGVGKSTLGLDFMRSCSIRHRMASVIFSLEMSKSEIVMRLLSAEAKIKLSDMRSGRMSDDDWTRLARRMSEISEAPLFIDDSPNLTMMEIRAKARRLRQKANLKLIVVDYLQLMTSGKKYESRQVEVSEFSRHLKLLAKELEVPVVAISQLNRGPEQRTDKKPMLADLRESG
# experiment: DnaB intein splicing inhibitors, dose response, biochemical, cell-free fluorescence (AID 449749)
# Type: functional
Activity calls are given as the source filed them.
property.label: AC50

Use these answered entries as a reference point.
Cc1ccccc1NC1=C/C(=N\S(=O)(=O)c2ccc(C(=O)O)cc2)c2ccccc2C1=O
105 µM (active)
CCCCCn1c(NC(=O)c2ccco2)c(S(=O)(=O)c2ccc(C)cc2)c2nc3ccccc3nc21
> 380 µM (inactive)
COC(=O)C1=NN(C(=O)c2cccc(Br)c2)C(O)(c2ccc(Cl)cc2)C1 (stereo not given)
> 380 µM (inactive)
Cc1n[nH]c2c1C1(CCN(Cc3ccccc3)CC1)C(C#N)=C(N)O2
> 380 µM (inactive)

Next:
Which measured AC50 value corresponds to Cc1ccc(NC2=C/C(=N/S(=O)(=O)c3cccs3)c3ccccc3C2=O)cc1 ?
0.301 µM (active)

The measurements presented in this section are drawn from ChEMBL document CHEMBL1201862.
